Every entry's value here was drawn from the kinase profiling compilation of Christmann-Franck et al. (2016).

molecular target: SYK (human) (UniProt P43405); experiment: radiometric filter-binding kinase assay, Kinase HotSpot; details: compound 0.5 µM; ATP 10 µM
Assign labels as follows, please: Y for residual activity below 90%; N for residual activity equal to or exceeding 90%.

> print(dat)
                               smiles.record                 tested.system  class.assignment
 1  O=S(=O)(NCCNC/C=C/c1ccc(Br)cc1)c1cccc2cnccc12  SYK (human) (UniProt P43405)                 Y
 2   Cc1cc(Nc2nc(-c3ccccc3)nc3ccccc23)n[nH]1  SYK (human) (UniProt P43405)                 Y
 3          O=C(c1ccccc1)c1ccc(N2CCOCC2)cc1O  SYK (human) (UniProt P43405)                 N
 4  Cn1cc(/C=C2\C(=O)Nc3ccc(S(N)(=O)=O)cc32)c2ccccc21  SYK (human) (UniProt P43405)                 Y
 5       CCOc1cc2ncnc(Nc3cccc(Br)c3)c2cc1OCC  SYK (human) (UniProt P43405)                 N
 6                   Nc1ncnc2c1cnn2-c1ccccc1  SYK (human) (UniProt P43405)                 N
 7  O=C(O)c1ccc2c3c1cccc3c(=O)n1c3ccccc3nc21  SYK (human) (UniProt P43405)                 N
 8  COc1cc2c(cc1OC)-c1[nH]nc(Nc3cccc(F)c3)c1C2  SYK (human) (UniProt P43405)                 N
 9      COc1cc2ncnc(Nc3ccc(O)c(Br)c3)c2cc1OC  SYK (human) (UniProt P43405)                 Y
10  COc1cc2c(N3CCN(C(=O)Nc4ccc(OC(C)C)cc4)CC3)ncnc2cc1OCCCN1CCCCC1  SYK (human) (UniProt P43405)                 N
11  O=c1[nH]c2ccccc2n1C1CCN(Cc2ccc(-c3nc4cc5[nH]cnc5cc4nc3-c3ccccc3)cc2)CC1  SYK (human) (UniProt P43405)                 N
